Reported values of Competition Binding, 1st exp. (ranking) for individual entries
TARGET ENTITY: PD-1
EXPERIMENT: competition binding, 1st experiment; rank among the clones; competitor not given
The reply should be a number, written without any unit.

Look up Competition Binding, 1st exp. (ranking): Clone No. 16 (antibody, human IgG4 S228P, kappa, V domains shown) VH: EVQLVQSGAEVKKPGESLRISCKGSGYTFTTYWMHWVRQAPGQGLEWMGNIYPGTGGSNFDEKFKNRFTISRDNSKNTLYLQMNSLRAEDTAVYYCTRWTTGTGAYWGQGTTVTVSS VL: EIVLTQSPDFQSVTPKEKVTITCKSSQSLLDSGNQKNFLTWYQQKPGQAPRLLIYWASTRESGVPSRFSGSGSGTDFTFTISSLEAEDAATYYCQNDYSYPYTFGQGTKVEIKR
16

Now look at this entry.
// returns reported Competition Binding, 1st exp. (ranking) for input Clone No. 4 (antibody, human IgG4 S228P, kappa, V domains shown) VH: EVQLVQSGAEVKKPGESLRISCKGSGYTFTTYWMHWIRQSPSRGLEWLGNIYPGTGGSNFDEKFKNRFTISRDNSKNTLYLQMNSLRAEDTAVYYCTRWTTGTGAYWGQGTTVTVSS VL: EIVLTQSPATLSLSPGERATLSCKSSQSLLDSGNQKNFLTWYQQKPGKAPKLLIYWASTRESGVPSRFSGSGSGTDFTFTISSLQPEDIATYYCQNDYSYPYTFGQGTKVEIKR
15
